Target: human PPARα (Homo sapiens)
Assay: LanthaScreen TR-FRET coactivator recruitment assay, PPARα LBD (PGC1α peptide)
Conditions: TR-FRET coactivator recruitment, human PPARα LBD; 95% confidence intervals in parentheses; read-out: EC50, half maximal effective concentration, PPARα
Reported values of EC50 for individual entries
Please state the figure in µM; there is no need to write the unit.

Example results:
1) CCCCCCCCCCCCCCC(=O)O [C15, Pentadecanoic acid] : 9.6
2) CCC/C=C\CCCCCCCCCCCC(=O)O [C17:1 cis-13, (13Z)-heptadec-13-enoic acid] : 4.7
3) CCC[C@@H]1C[C@@H]1CCCCCCCCCC(=O)O [C15Δ1 cis-11] : 14.1
4) CCC[C@@H]1C[C@@H]1CCCCCCCCCCCC(=O)O [C17Δ1 cis-13] : 4.12
5) CCCCCCCCCCCCCCCCC(=O)O [C17, Heptadecanoic acid] : 5.04

Problem: Specify reported EC50 for the molecule shown: CCCCCCCC[C@@H]1C[C@@H]1CCCCCCCC(=O)O [C18Δ1 cis-9, (9S,10R)-9,10-methyleneoctadecanoic acid]
Result: 5.23

Problem: Give the reported EC50 for this molecule. CCC/C=C\CCCCCCCCCC(=O)O [C15:1 cis-11, (11Z)-pentadec-11-enoic acid]
Result: 12.8

Problem: # return recorded EC50 for entry CCCCCC[C@@H]1C[C@@H]1CCCCCCCCCC(=O)O [C18Δ1 cis-11]
Result: 7.65

Problem: Specify EC50 for CCCCCCCCCCCCCCCC(=O)O [C16, Hexadecanoic acid] and stop.
Result: 5.43

====

Target: UniProtKB Q03181
Experiment: LanthaScreen TR-FRET coactivator recruitment assay, PPARδ LBD (C33 peptide)
Details: TR-FRET coactivator recruitment, human PPARδ LBD; 95% confidence intervals in parentheses; read-out: EC50, half maximal effective concentration, PPARδ
We begin with a simple list: items and their reported pEC50.
pEC50 field: float, defined as -log10 of concentration (mol/L).

1) CCCCCC/C=C\CCCCCCCCCC(=O)O [C18:1 cis-11, (11Z)-octadec-11-enoic acid] : 4.66

Problem: Name the recorded pEC50 of the compound listed here: CCCCCC/C=C\CCCCCCCC(=O)O [C16:1 cis-9, (9Z)-hexadec-9-enoic acid]
Result: 4.58

====

Biological target: human PPARα (Homo sapiens)
Test: LanthaScreen TR-FRET coactivator recruitment assay, PPARα LBD (PGC1α peptide)
Settings: TR-FRET coactivator recruitment, human PPARα LBD; 95% confidence intervals in parentheses; read-out: EC50, half maximal effective concentration, PPARα
Endpoint label: pEC50
pEC50 here: minus log base 10 of the concentration, concentration in moles per litre.

Problem: // Input: CCCCCCCC/C=C\CCCCCCCC(=O)O [C18:1 cis-9, (9Z)-octadec-9-enoic acid] . Output its pEC50 only.
Result: 6.04

Problem: Given CCCCCCCCCCCCCCCCCC(=O)O [C18, Octadecanoic acid] , respond with its pEC50.
Result: 5.20

Problem: Note down pEC50 recorded for CCCCCC/C=C\CCCCCCCC(=O)O [C16:1 cis-9, (9Z)-hexadec-9-enoic acid]
Result: 5.67

Problem: Name the recorded pEC50 of the item CCCCCC/C=C\CCCCCCCCCC(=O)O [C18:1 cis-11, (11Z)-octadec-11-enoic acid] in your answer.
Result: 5.46

Problem: Specify reported pEC50 for the compound shown: CCCCCC[C@@H]1C[C@@H]1CCCCCCCC(=O)O [C16Δ1 cis-9, (9S,10R)-9,10-methylenehexadecanoic acid]
Result: 4.91

====

Target: human PPARδ (Homo sapiens, UniProt Q03181)
Construct: purchased ThermoFisher Scientific PV4685
Sequence (Q03181 211-439 limits assumed): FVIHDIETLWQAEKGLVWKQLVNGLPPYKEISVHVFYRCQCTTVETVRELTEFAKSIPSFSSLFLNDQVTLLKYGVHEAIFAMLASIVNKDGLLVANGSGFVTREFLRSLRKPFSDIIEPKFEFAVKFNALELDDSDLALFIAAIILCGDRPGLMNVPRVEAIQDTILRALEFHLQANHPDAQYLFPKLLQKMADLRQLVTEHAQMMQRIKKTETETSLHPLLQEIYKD
Experiment: LanthaScreen TR-FRET coactivator recruitment assay, PPARδ LBD (C33 peptide)
Type: biochemical
Conditions: % relative to agonist control GW501516 at the highest concentration; 95% confidence intervals in parentheses; read-out: Emax, maximum efficacy, PPARδ
Endpoint label: Emax (%)
Reply with just the number (in %).

Answered examples (5):
1. CCCCCC[C@@H]1C[C@@H]1CCCCCCCCCC(=O)O [C18Δ1 cis-11] : 57
2. CCC[C@@H]1C[C@@H]1CCCCCCCCCC(=O)O [C15Δ1 cis-11] : 14.9
3. CCCCCC/C=C\CCCCCCCC(=O)O [C16:1 cis-9, (9Z)-hexadec-9-enoic acid] : 39.5
4. CCC/C=C\CCCCCCCCCC(=O)O [C15:1 cis-11, (11Z)-pentadec-11-enoic acid] : 18.9
5. CCCCCC[C@@H]1C[C@@H]1CCCCCCCC(=O)O [C16Δ1 cis-9, (9S,10R)-9,10-methylenehexadecanoic acid] : 58.1

Problem: Fill in: Emax on human PPARδ (Homo sapiens, UniProt Q03181), entry CCC/C=C\CCCCCCCCCCCC(=O)O [C17:1 cis-13, (13Z)-heptadec-13-enoic acid]
Result: 30.6

Problem: Write down the reported Emax (system: human PPARδ (Homo sapiens, UniProt Q03181)) of CCCCCCCCCCCCCCC(=O)O [C15, Pentadecanoic acid]
Result: 23.7

Problem: Report measured Emax on human PPARδ (Homo sapiens, UniProt Q03181); entry: CCCCCCCCCCCCCCCCC(=O)O [C17, Heptadecanoic acid]
Result: 41.3

Problem: Would you please give the reported Emax of CCCCCC/C=C\CCCCCCCCCC(=O)O [C18:1 cis-11, (11Z)-octadec-11-enoic acid] with human PPARδ (Homo sapiens, UniProt Q03181)?
Result: 43.5

Problem: Give reported Emax for CCC[C@@H]1C[C@@H]1CCCCCCCCCCCC(=O)O [C17Δ1 cis-13] (human PPARδ (Homo sapiens, UniProt Q03181))
Result: 37.1

====

The following compounds are shown together with reported Emax values.
Biological target: human PPARα (Homo sapiens, UniProt Q07869)
Construct: purchased ThermoFisher Scientific PV4684
Sequence (Q07869 239-466 limits assumed): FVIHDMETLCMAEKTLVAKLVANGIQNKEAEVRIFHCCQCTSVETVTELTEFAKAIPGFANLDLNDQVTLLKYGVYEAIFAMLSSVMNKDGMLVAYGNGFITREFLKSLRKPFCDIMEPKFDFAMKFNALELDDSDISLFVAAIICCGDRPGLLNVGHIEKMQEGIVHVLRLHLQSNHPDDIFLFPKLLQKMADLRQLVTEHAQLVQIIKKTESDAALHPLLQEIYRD
Assay: LanthaScreen TR-FRET coactivator recruitment assay, PPARα LBD (PGC1α peptide)
Type: biochemical
Settings: % relative to agonist control GW7647 at the highest concentration; 95% confidence intervals in parentheses; read-out: Emax, maximum efficacy, PPARα

1. CCC[C@@H]1C[C@@H]1CCCCCCCCCC(=O)O [C15Δ1 cis-11] : 26.3%
2. CCC/C=C\CCCCCCCCCCCC(=O)O [C17:1 cis-13, (13Z)-heptadec-13-enoic acid] : 70%
3. CCCCCCCCCCCCCCCCCC(=O)O : 55.9%

# ---- query compound ----
Problem: Hello, please tell me recorded Emax for this one: CCCCCCCC[C@@H]1C[C@@H]1CCCCCCCC(=O)O [C18Δ1 cis-9, (9S,10R)-9,10-methyleneoctadecanoic acid]
Result: 51.4%

====

Molecular target: human PPARα (Homo sapiens, UniProt Q07869)
Construct: purchased ThermoFisher Scientific PV4684
Assay: LanthaScreen TR-FRET coactivator recruitment assay, PPARα LBD (PGC1α peptide)
Type: biochemical
Conditions: % relative to agonist control GW7647 at the highest concentration; 95% confidence intervals in parentheses; read-out: Emax, maximum efficacy, PPARα
Parameter Emax: see the listing below.
Please respond with the number in % and leave the unit unwritten.

1) CCCCCCCCCCCCCCCCC(=O)O [C17, Heptadecanoic acid] : 58.9
2) CCCCCC/C=C\CCCCCCCC(=O)O [C16:1 cis-9, (9Z)-hexadec-9-enoic acid] : 59.1
3) CCC[C@@H]1C[C@@H]1CCCCCCCCCCCC(=O)O [C17Δ1 cis-13] : 65
4) CCCCCC[C@@H]1C[C@@H]1CCCCCCCCCC(=O)O [C18Δ1 cis-11] : 54.7
5) CCC/C=C\CCCCCCCCCC(=O)O [C15:1 cis-11, (11Z)-pentadec-11-enoic acid] : 26.6
6) CCCCCC/C=C\CCCCCCCCCC(=O)O [C18:1 cis-11, (11Z)-octadec-11-enoic acid] : 45.2
7) CC(C)(Sc1ccc(CCN(CCCCC2CCCCC2)C(=O)NC2CCCCC2)cc1)C(=O)O [GW7647] : 86.6
8) CCCCCC[C@@H]1C[C@@H]1CCCCCCCC(=O)O [C16Δ1 cis-9, (9S,10R)-9,10-methylenehexadecanoic acid] : 62.3

Problem: Give Emax for CCCCCCCCCCCCCCCC(=O)O [C16, Hexadecanoic acid] tested on human PPARα (Homo sapiens, UniProt Q07869).
Result: 52.6

Problem: // output Emax; input CCCCCCCCCCCCCCC(=O)O [C15, Pentadecanoic acid] ; system human PPARα (Homo sapiens, UniProt Q07869)
Result: 36.8

====

Target: human PPARδ (Homo sapiens)
Experiment: LanthaScreen TR-FRET coactivator recruitment assay, PPARδ LBD (C33 peptide)
Details: TR-FRET coactivator recruitment, human PPARδ LBD; 95% confidence intervals in parentheses; read-out: EC50, half maximal effective concentration, PPARδ
Endpoint label: EC50 (µM)
Enter your answer as a number in µM; do not include the unit.

1. CCCCCC[C@@H]1C[C@@H]1CCCCCCCCCC(=O)O [C18Δ1 cis-11] : 25.8
2. CCCCCCCCCCCCCCCCC(=O)O [C17, Heptadecanoic acid] : 22.3
3. CCC[C@@H]1C[C@@H]1CCCCCCCCCC(=O)O [C15Δ1 cis-11] : 25.6
4. CCC/C=C\CCCCCCCCCC(=O)O [C15:1 cis-11, (11Z)-pentadec-11-enoic acid] : 25.7

Problem: Provide measured EC50 value, entry: CCCCCC[C@@H]1C[C@@H]1CCCCCCCC(=O)O [C16Δ1 cis-9, (9S,10R)-9,10-methylenehexadecanoic acid]
Result: 22

Problem: Tell me its EC50 given CCC[C@@H]1C[C@@H]1CCCCCCCCCCCC(=O)O [C17Δ1 cis-13] as the entry.
Result: 26.8

Problem: Give the measured EC50 for CCC/C=C\CCCCCCCCCCCC(=O)O [C17:1 cis-13, (13Z)-heptadec-13-enoic acid]
Result: 17.8

Problem: Input CCCCCCCC/C=C\CCCCCCCC(=O)O [C18:1 cis-9, (9Z)-octadec-9-enoic acid] , output reported EC50.
Result: 18.5

Problem: Query EC50 for CCCCCCCC[C@@H]1C[C@@H]1CCCCCCCC(=O)O [C18Δ1 cis-9, (9S,10R)-9,10-methyleneoctadecanoic acid]
Result: 27.1

Problem: Name the recorded EC50 of the molecule listed here: CCCCCCCCCCCCCCC(=O)O [C15, Pentadecanoic acid]
Result: 25.6
